# ASSAY_NAME: yeast display, Sf9 membrane polyspecificity reagent, FACS + sequencing; frameworks hold sequencing errors
REPORTED_METRIC: polyreactivity (PSR sort gate)

Before answering, review these 5 worked examples.
| SEQUENCE_CODE | REPORTED_METRIC | RESULT |
| --- | --- | --- |
| QVQLVESGGGLVQAGGSLRLSCAASGRTFVPYAMGWYRQAPGKERELVAAITSSGGSTYYADSVKGRFTISRDNAKNTVYLQMNSLKPEDTAVYYCNALDGTLRTIYDYWGQGTQVTVSS | polyreactivity (PSR sort gate) | high polyreactivity |
| QVQLVESGGGLVQAGGSLRLSCAASGSTFVVNAMGWYRQAPGKERELVAAIDDGAGDTYYADSVKGRFTISRDNAENTVYLQMNSLKPEDTAVYYCAADTWYQMDYWGQGTQVTVSS | polyreactivity (PSR sort gate) | low polyreactivity |
| QVQLVESGGGLVQAGGSLRLSCAASGFIFRRYAMGWYRQAPGKERELVAAISGRGASTYYGDSVKGRFTISRDNAKNNVYVQMNSLKPEDTAAYYCNAVPDNLNYDYWGQGTQVTVSS | polyreactivity (PSR sort gate) | high polyreactivity |
| QLQLVESGGGLVQAGGSLRLSCAASGSTFAANAMGRYRQAPGKERELVAASTSSGGSTYYADSVKGRFTISRDNAQNTVYLQMNSLKPEDTAVYYCAADRWYITLSIDATISYDYWGQGTQVTVSS | polyreactivity (PSR sort gate) | low polyreactivity |
| QVQLVESGGGLVQARGSLRLSCAASGRIFKYNAMGWYRQAPGKESELVAAISGGGSTNYADSVKGRFTISRDNAKNTVYLLMNSLKPEDTAVYYCAKGYRRVYGPFYYWGQGTQVTVSS | polyreactivity (PSR sort gate) | low polyreactivity |

Q: I'd like to know its polyreactivity (PSR sort gate). The sequence in question is QVQLVESGGGLVQAGGSLRLSCAASGRIFNANAKGWYRQAPWKERELVAAITYSGGSTYYADSVKGRFTISRDNAKNTVYLQKNSLKPEDTAVYYCNVDYAGPYDYWGQGTQVTVSS
Ans: low polyreactivity

Q: I'd like to know its polyreactivity (PSR sort gate). The sequence in question is QVQLVESGGGLVQAGGSLLLSCAASGFIFGLNAMGWYRQAPGKERELVAAIRSASSTNYADSVKGRFTISRDNAKNTVYLQMNSLKPEDTAVYYCAAEYVTYQQGFWGYDYWGQGTQVTVSS
Ans: low polyreactivity

Q: I'd like to know its polyreactivity (PSR sort gate). The sequence in question is QVQLVESGGGLVQAGGSLRLSCAASGRIFYRYAMGWSRQAPGKERELVASITTSGDSTYYADSVKGRFTISRDNAKNTVYLQMNSLKPEDTAVYYCAARSYRGRRYDYWGQGTQVTVSS
Ans: high polyreactivity

Q: I'd like to know its polyreactivity (PSR sort gate). The sequence in question is QVQLVESGGGLVQAGGSLRLSCAASGGTFRLNAMGWYRQAPGKERELVATITRRGGSTYYADSVKGRFTISRDNAKNTVYLQMNSLKPEDTAVYYCAARDVYRGGLFDYWGQGTQVTVSS
Ans: high polyreactivity

Q: I'd like to know its polyreactivity (PSR sort gate). The sequence in question is QVQLEESGGGLVQAGGSLRLSCAASVFTFSRYAMGWYRQAHGKVREIVAAISYRGGSTYADSVKGRFTISRDNAKNTVYLQMNSLKPEDTAVYYCAALRWGTDVWRRRIGSLLMGYSGQGTQVTVSS
Ans: high polyreactivity

Q: I'd like to know its polyreactivity (PSR sort gate). The sequence in question is QVQLVESGGGLVQAGGSLRLSCAASGRTFRYYVMGWYRPATGTERELVAGISGSGGNTYYADSVKGRFTISRDNAKNTVYLQMNSLKPEDTAVYYCNAYSPYAEYDYWGQGTQVTVSS
Ans: high polyreactivity

----------
# ASSAY_NAME: yeast display, Sf9 membrane polyspecificity reagent, FACS + sequencing; frameworks hold sequencing errors
REPORTED_METRIC: polyreactivity (PSR sort gate)

| SEQUENCE_CODE | polyreactivity (PSR sort gate) |
| --- | --- |
| QVQLVESGGGLVQEGGSLRLSCASSGFIFEDYAKGWYRQARGKERELVAAMRSNDDSTYYADSVKGRFTISRDNAKNSVYFQMNSLKPEDTAVYYCAAATYGTRLRRYYYWGQGSQVTVSS | high polyreactivity |
| QVQLVDSGGGLVQAGGSLRLICAASGRIFIYNAMGWYRQAPGKERELVAAITRGGNTNYADSVKGRFTISRDNAKNTVYLQMNSLKPEDTAVYYCAAAIRYGSRHRGYWGQGTQVTVSS | low polyreactivity |
| QVQLVESGGGIVQAGGSLRLSCAASGRIFYYNAMGWYRQAPGKERELVAAISTRGTSTYYAESVKGRFTISRDNAKNTVYLQMNSLKPEDTAVYYCNRASGNWQSYLSYDYWGQGTQVTVSS | low polyreactivity |
| QVQLVESGGGLVQAGGSLRLTCAATGSTLYFYAMGWYRQAPGKERELVASISGTGGRTDYADSVKGRFTISRDNAKNTVYLQMNSLKPEDTAVYYCAADLIRRYGDGYWGQGTQVTVSS | high polyreactivity |
| QVQLVESGGGLVQAGGSLRLSCAASGFTSYGYAMGWYRQAPGKERELVAAISRSGGSTYYADSVKGRFTISRDNAKNTVYLQMNSLKPEDTAVYYCAVAVGREYVYRYYYWGQGTQVTVSS | high polyreactivity |

Q: I'd like to know its polyreactivity (PSR sort gate). The sequence in question is QVQLVESGGGLVQAGGSLRLSCAASGSTFLRYAMGWYRQAPGKERELVAAISVSGGSTYYADSVKGRFTISRDNAKNTVYLQMNCLKPEDTAVYYCAAVYKRLQPYGYWGQGTQVTVSS
Ans: high polyreactivity

Q: I'd like to know its polyreactivity (PSR sort gate). The sequence in question is QVQLVESGGGLVQAGGSLRLSCAASGFTFRYYAMGWYRQAPGKERELVAGISWRGGSTNYADSVKGRFTISRDNAKNTVYLQMNSLKPEDTAVYYCNAVSYSFPIHRVRPTWYDYWGQGTQVTVSS
Ans: high polyreactivity

Q: I'd like to know its polyreactivity (PSR sort gate). The sequence in question is QVQLVESGGGLVQAGGSLRLSCAASGRIFTVYAMGWYRQAPGKERELVAAISSSGGSTYYADSLKGRFTISRDNAKNSVFLQMNSLKPEDTAVYYCAKPRTYDKDKYDYWGQCTQVTVSS
Ans: high polyreactivity

Q: I'd like to know its polyreactivity (PSR sort gate). The sequence in question is QVQLVESGGGIVQPGGSLRLSCAASGSIFGYNAIGWYRQAPGKERELVAAISTSSGSTYYADSVKGRFTISRDNAKNTVFLQMNSLKPEDTAVYYCAARDRPFGRYDYWGQATQVTVSS
Ans: low polyreactivity

Q: I'd like to know its polyreactivity (PSR sort gate). The sequence in question is QVQLVESGGGLVQAGGSLRLSCAASGRIFAANVMGWYRQAPWKERELVAAISWNGGSTYYADSVKGRFTISRDNAKNTVYLQMNSLKPEDTAVYYCAVRGSYRGWYDYWGQGTQVTVSS
Ans: high polyreactivity

Q: I'd like to know its polyreactivity (PSR sort gate). The sequence in question is QVQLVESGGGLVQAGGSLRLSCAASGRNFEQYAMGWYRQAPGKERELVAAISGSGGSTFYADSVKGRFTISRDNAKNTVYVQMNRLKPEDTAVYYCNAPGDGYLYDHTYDYWGQGTQVTVSS
Ans: low polyreactivity

Q: I'd like to know its polyreactivity (PSR sort gate). The sequence in question is QVQLVESGGGLVQAGGSLRLSCAASGYIFQVNAMGWYRQAPGKERELVASISCGGSTNYADSVKGRFTISRDNAKNTVYLQMNSLKPEDTAVYYCAAELGYPYLQYVYWSQYLYDYWGQGTQVTVSS
Ans: low polyreactivity

Q: I'd like to know its polyreactivity (PSR sort gate). The sequence in question is QVQLVESGGGLVQAGGSLRLSCAASGIIFHRYAMGWYRQAPGKERELVAAISWNGGSTYYADSVKGRFTISRDNAKNTVYLQMNSLKPEDTAVYYCAARKLYSNISGYWGQGTLVTVSS
Ans: high polyreactivity

Q: I'd like to know its polyreactivity (PSR sort gate). The sequence in question is QVQLVESGGGLVQAGGSLRLSCAASGRTFGRYAMGWYRQAPGKERELVAAITRGGSTNYADSVKGRFTISRDNAKNTVYLQMNSLKPEDTAVYYCAKSVRYRYDYWGQGTQVTVSS
Ans: high polyreactivity

Q: I'd like to know its polyreactivity (PSR sort gate). The sequence in question is QVQLVESGGGLVQAGGSLRLSCAASGSTFSVNAMGWYRQAPGKERELVAAITRSGGSTYYEDSVKGRFTISRENAKNTVYLQMNSLKPEDTAVYYCAAVIFPLGEYWGQGTQVTVSS
Ans: low polyreactivity
